Study Target: T1, human IFN-ω (human, UniProt P05000 24-195)
T1 construct: also called interferon omega
Assay Protocol: ProteOn, one antigen concentration
Readout Label: Kd (pM)
State the answer as a number, implicitly in pM.

(Q) Returns the measured Kd for the input binder. Input: IFWM3302 (antibody, V domains shown, VH IFWH591, VL IFWL991; converted mAb; also called IFWB3037) VH: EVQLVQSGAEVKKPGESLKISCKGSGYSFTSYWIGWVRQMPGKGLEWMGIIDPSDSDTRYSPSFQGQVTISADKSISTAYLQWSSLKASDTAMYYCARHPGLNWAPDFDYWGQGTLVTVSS VL: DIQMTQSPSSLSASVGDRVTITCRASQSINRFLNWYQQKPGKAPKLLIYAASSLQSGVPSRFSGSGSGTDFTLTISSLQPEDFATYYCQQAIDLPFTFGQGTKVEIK
(A) 52

(Q) Next entry: IFWM3328 (antibody, V domains shown, VH IFWH591, VL IFWL1064; converted mAb; also called IFWB3063) VH: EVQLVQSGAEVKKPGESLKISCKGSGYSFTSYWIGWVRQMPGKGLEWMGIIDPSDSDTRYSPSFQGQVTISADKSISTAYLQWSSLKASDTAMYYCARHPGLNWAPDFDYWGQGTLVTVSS VL: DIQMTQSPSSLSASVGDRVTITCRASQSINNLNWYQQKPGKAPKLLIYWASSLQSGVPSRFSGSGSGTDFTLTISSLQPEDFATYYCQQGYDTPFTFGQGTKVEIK
(A) 108
